# tgt: CYP2C8 (Homo sapiens, UniProt P10632)
# Sequence (P10632 whole entry): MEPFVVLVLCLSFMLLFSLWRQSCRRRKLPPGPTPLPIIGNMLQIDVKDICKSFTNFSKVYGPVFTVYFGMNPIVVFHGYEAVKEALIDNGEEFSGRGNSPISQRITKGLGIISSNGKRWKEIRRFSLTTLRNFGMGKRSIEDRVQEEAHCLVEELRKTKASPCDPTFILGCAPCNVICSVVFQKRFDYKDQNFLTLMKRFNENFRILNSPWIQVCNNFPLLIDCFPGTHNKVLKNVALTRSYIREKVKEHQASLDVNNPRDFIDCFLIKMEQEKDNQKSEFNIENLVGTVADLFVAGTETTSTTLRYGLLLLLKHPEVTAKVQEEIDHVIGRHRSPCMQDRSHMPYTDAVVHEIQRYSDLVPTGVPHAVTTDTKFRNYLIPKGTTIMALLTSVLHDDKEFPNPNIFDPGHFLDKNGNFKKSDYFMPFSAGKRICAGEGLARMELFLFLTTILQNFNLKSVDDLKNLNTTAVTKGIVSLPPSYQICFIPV
# experiment_description: Inhibition of CYP2C8 (unknown origin) at 3 uM
# Assay type: ADME
recorded_metric: inhibition at 3 µM (%)
Please respond with the number in % and leave the unit unwritten.

inhibition at 3 µM reported for this compound COc1ccc2c(c1O)CCCC(CCC#N)=C2c1cc(OC)c(OC)c(OC)c1 : 45.3

inhibition at 3 µM reported for this compound COc1cc2c(c(OC)c1OC)-c1ccc(OC)c(=O)cc1[C@@H](NC(C)=O)CC2 : 20.4

inhibition at 3 µM reported for this compound COc1ccc2c(c1O)CCCC(CC(O)CO)=C2c1cc(OC)c(OC)c(OC)c1 (racemic) : 35.4

###

# tgt: UniProt:P10635
# Sequence (P10635 whole entry): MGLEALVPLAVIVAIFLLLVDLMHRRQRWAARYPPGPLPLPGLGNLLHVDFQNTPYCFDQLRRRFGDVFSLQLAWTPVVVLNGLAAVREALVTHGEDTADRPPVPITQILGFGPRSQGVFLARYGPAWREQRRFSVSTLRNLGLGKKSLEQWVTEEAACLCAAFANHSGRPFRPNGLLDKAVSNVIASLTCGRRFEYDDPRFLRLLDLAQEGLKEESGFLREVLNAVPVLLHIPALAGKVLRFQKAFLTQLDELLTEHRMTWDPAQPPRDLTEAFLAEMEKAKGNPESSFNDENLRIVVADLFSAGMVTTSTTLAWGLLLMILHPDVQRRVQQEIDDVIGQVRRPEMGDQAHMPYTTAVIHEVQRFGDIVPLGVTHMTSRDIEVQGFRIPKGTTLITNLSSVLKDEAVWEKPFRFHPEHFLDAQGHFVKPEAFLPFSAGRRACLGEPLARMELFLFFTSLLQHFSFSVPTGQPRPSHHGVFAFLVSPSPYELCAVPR
# experiment_description: Inhibition of CYP2D6 (unknown origin) at 3 uM
# Assay type: ADME
Give measured inhibition at 3 µM for each item. Keep answers brief.
Please respond with the number in % and leave the unit unwritten.

inhibition at 3 µM reported for this compound COc1ccc2c(c1O)CCCC(CCCC#N)=C2c1cc(OC)c(OC)c(OC)c1 : 0.9

inhibition at 3 µM reported for this compound COc1ccc2c(c1O)CCCC(Cc1ccccc1)=C2c1cc(OC)c(OC)c(OC)c1 : 26.2

inhibition at 3 µM reported for this compound CCC1=C(c2cc(OC)c(OC)c(OC)c2)c2ccc(OC)c(O)c2CCC1 : 16

###

# experiment_description: Apparent permeability from apical to basolateral side in RRCK cells
# Type: ADME, cell-based, Canis lupus familiaris, MDCKII-LE
# test_parameters: dog, MDCK
recorded_metric: Papp A→B (×10⁻⁶ cm/s)
Please respond with the number in ×10⁻⁶ cm/s and leave the unit unwritten.

Papp A→B reported for this molecule COc1ccc2c(c1O)CCCC(CCC#N)=C2c1cc(OC)c(OC)c(OC)c1 : 19.6

Papp A→B reported for this molecule COc1ccc2c(c1O)CCCC(CC(O)CO)=C2c1cc(OC)c(OC)c(OC)c1 (racemic) : 16.1

Papp A→B reported for this molecule COc1ccc2c(c1O)CCCC(CCCC#N)=C2c1cc(OC)c(OC)c(OC)c1 : 16.6

Papp A→B reported for this molecule COc1ccc2c(c1O)CCCC(C)=C2c1cc(OC)c(OC)c(OC)c1 : 6.2

Papp A→B reported for this molecule COc1cc2c(c(OC)c1OC)-c1ccc(OC)c(=O)cc1[C@@H](NC(C)=O)CC2 [COLCHICINE] : 0.76

Papp A→B reported for this molecule CCC1=C(c2cc(OC)c(OC)c(OC)c2)c2ccc(OC)c(O)c2CCC1 : 3.3

###

# tgt: CYP3A4 (Homo sapiens, UniProt P08684)
# Sequence (P08684 whole entry): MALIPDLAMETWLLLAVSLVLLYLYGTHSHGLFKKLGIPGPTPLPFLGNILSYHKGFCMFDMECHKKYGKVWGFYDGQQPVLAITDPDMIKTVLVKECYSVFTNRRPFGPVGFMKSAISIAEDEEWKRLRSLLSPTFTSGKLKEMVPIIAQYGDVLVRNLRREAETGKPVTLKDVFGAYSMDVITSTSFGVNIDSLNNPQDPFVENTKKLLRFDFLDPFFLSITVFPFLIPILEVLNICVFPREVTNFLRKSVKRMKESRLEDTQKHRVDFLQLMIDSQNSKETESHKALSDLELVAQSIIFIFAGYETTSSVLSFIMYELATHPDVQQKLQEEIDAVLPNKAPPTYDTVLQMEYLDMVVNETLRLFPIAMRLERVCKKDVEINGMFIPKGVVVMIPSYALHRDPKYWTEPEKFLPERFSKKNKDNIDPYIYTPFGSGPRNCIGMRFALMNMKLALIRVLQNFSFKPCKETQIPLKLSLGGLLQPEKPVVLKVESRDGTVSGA
# experiment_description: Inhibition of CYP3A4 (unknown origin) at 3 uM
# Format: ADME
Lab note: compare inhibition at 3 µM against 30%. Equal or greater, write y. Smaller, write n.

Query: Reported inhibition at 3 µM reaches at least 30% for COc1ccc2c(c1O)CCCC(Cc1ccccc1)=C2c1cc(OC)c(OC)c(OC)c1 ?
Response: y

Query: Reported inhibition at 3 µM reaches at least 30% for COc1ccc2c(c1O)CCCC(CCC#N)=C2c1cc(OC)c(OC)c(OC)c1 ?
Response: y

Query: Reported inhibition at 3 µM reaches at least 30% for COc1ccc2c(c1O)CCCC(CC(O)CO)=C2c1cc(OC)c(OC)c(OC)c1 (racemic) ?
Response: n

Query: Reported inhibition at 3 µM reaches at least 30% for COc1ccc2c(c1O)CCCC=C2c1cc(OC)c(OC)c(OC)c1 ?
Response: n

Query: Reported inhibition at 3 µM reaches at least 30% for COc1ccc2c(c1O)CCCC(CCCC#N)=C2c1cc(OC)c(OC)c(OC)c1 ?
Response: n

Query: Reported inhibition at 3 µM reaches at least 30% for CCC1=C(c2cc(OC)c(OC)c(OC)c2)c2ccc(OC)c(O)c2CCC1 ?
Response: y

Query: Reported inhibition at 3 µM reaches at least 30% for COc1ccc2c(c1O)CCCC(C)=C2c1cc(OC)c(OC)c(OC)c1 ?
Response: y
